System: G-clamp-N3 (biotin conjugate)
Experiment: pull-down binding Z-score (relative to library population); higher = stronger binding
Details: RNA library: Library-1 (pre-miRNA loops + repeats)
Label rule, in plain words: pull-down binding Z-score of 0.1 and up is Y, under 0.1 is N.

- UCCAGCUGUGUGAUAUUCUGCUG [hsa-mir-19b-1]: N
- UAAUGCUCUGAAAAUGACUCCAAUCAUUA [hsa-mir-3202-2]: N
- GGCUGGGCAGGCGGAAAGAGGUCUGAACUGCCUCUGCC [hsa-mir-6791]: Y
- CCUGCUGUGUGAAACAAAAGUAAG [hsa-mir-302c]: N
- CAGGCUGCUAAACAACAGAACGAGCACUG [hsa-mir-378f]: Y
- GCCUGCGGGCAGGAAGCGGA [hsa-mir-3928]: N
- AGUGGUGCAAUCUCAGUUCACU [hsa-mir-3135a]: N
- GGACGUCACCACCAUGGCC [hsa-mir-650]: N
- CGGAGCAGUCACGUUGACGGAAUCCUCCG [hsa-mir-3183]: Y
- CUGAUUCAGAAAGAUCAUCGG [hsa-mir-127]: N
- CGCUAGUAGUGGCG [hsa-mir-3960]: Y
- GGAGAUCGUACC [hsa-mir-4430]: N
- UUUUGCAUUUAAAGUAAUGGCCAAA [hsa-mir-548ay]: Y
- UGGGUGGAUCCUCUAUUUCCUUACGUGGGCCACUGG [hsa-mir-432]: Y
- CUGGGUUCGGCUGCUACCCCAAA [hsa-mir-6768]: N
- UCAGCACCUGAACGCCAAGGCUGG [hsa-mir-3150a]: Y
- GUGUCUGGCCCCAGCAGCCCAGACU [hsa-mir-6751]: N
- GCUGGGGGUAAAUGACUUGCACAUGAACACAAC [hsa-mir-708]: N
- CUGAAAAUACAAAAUGGAAAAUUCCAG [hsa-mir-4494]: N
- UUGUGAUGUUUACCGUUUAAAUCCACGG [hsa-mir-125b-1]: N
- GAGUGGUCGGGUCGACUGAACC [hsa-mir-4726]: N
- UAGAUGUUAUAAAAAUAUAUAUCUG [hsa-mir-4680]: Y
- UCCAGGAUCUGGGUUUUGAGGUCUUGG [hsa-mir-4309]: Y
- GUUUACGUGAUUCCUGGUUAAUC [hsa-mir-376b]: Y
- CAAAACUCCGUACAUUGCUAUUUUGC [hsa-mir-3064]: N
- UUCUUUUUUCUGAAAUUCUUCAGGAAGGA [hsa-mir-3167]: N
- UCUCAAUCCAUUCAUAUUGAAA [hsa-mir-3662]: N
- AAGGCCAGGACCCGCUGACCCAU [hsa-mir-6872]: N
- GUGGAACUGACCUGCCCCCUUUCUC [hsa-mir-6817]: N
- AACAUACAUUUGUCUUGGUGUGUU [hsa-mir-4684]: Y
- GCAGCUGGAAUUCAAGCCCUGCUGC [hsa-mir-6882]: N
- UAAGUGUUAUAGCACUUA [hsa-mir-374a]: N
- UGGCGGCGGCGAGGACACCGCCGCU [hsa-mir-4469]: Y
- GUGGGUCAAGUUUAGAGAUGCACCAAC [hsa-mir-490]: Y
- UCUGUUUGUUUUCUCUUAAACA [hsa-mir-519d]: N
- CUUGAUUUAAAUGUCCAUACAAUUAAG [hsa-mir-124-1]: N
- UUUUCUGUCCUGUCCACACAGAAAA [hsa-mir-1537]: N
- AGGAGGGUCC [hsa-mir-3141]: N
- UCCACACUGACAAGGGCCGUGGGG [hsa-mir-3191]: N
- UGGGCCAAG [hsa-mir-3620]: N
- UCCACCCUGGUCCAGGUCCACAGCAGUGGA [hsa-mir-4644]: N
- AGGCCGUUGCCAAUCAGAGAACGGCUA [hsa-mir-138-1]: N
- AAUGCUGUGUUUCUGUAUGGUAUU [hsa-mir-92a-1]: N
- CAGACGGCUUUCUCUCCGAAUGUCUG [hsa-mir-2276]: N
- CCUCGAAGCUGCCUUUAGAAAUGAGG [hsa-mir-4496]: N
- GGCGGCUCGGAGUACCUCUGCCGCC [hsa-mir-6869]: Y
- GGCGUGGACAACUUGCU [hsa-mir-3943]: Y

###

Test system: TO-3-N3-2 (biotin conjugate)
Experiment: pull-down binding Z-score (relative to library population); higher = stronger binding
Details: RNA library: Library-2
Label rule, in plain words: pull-down binding Z-score of 0.003 and up is MET, under 0.003 is NOT MET.

* GGCACUGGGUAUCGUAGGUGCC [hsa-mir-3116-1] | MET
* CUUAGCUGUCUUUGAUAAAAAUCUCUAUGACAAACUUGUUUCAAGCUUUUUGGAAAUGAAGAGUGAAAAGCAAGUUGAACAAAAGAUCGCUGAG [SHAPE_invivo_SARS-CoV-2_Motif_73] | MET
* UGGCAAAGGGGUAGCUAAACAAUCUAUGUCUUUGCCA [hsa-mir-3119-1] | MET
* AGCAGUACCAGAUGGUUCUGUGG [hsa-mir-3198-2] | NOT MET
* UGCUCUGGUGACUGAGGACCGCCAGGCA [hsa-mir-4763] | NOT MET
* UGUCAUUACUUUUAAUGGUA [hsa-mir-548h-1] | NOT MET
* GGCAUCUAGGCUGUGCACAGUGACGCC [hsa-mir-4749] | NOT MET
* GGGUGUAUGGUAUAGGGGUAGCCU [hsa-mir-3137] | MET
* UGGAGGAAUACAAAUCCA [SHAPE_invitro_SARS-CoV-2_Motif_386] | MET
* CAGCACUGAGCAGGCAGUGUUGU [hsa-mir-4288] | NOT MET

###

Tested on: TO-3-N3 (biotin conjugate)
Assay: pull-down binding Z-score (relative to library population); higher = stronger binding
Conditions: RNA library: Library-2
Label rule, in plain words: pull-down binding Z-score of -0.6 and up is Y, under -0.6 is N.

* AUAAAGAAAUGUAUCUAAAGUUGCGUAGUGAUGUGCUAUUACCUCUUACGCAAUAUAAUAGAUACUUAGCUCUUUAU | Y
* UGGUUACGUGUUUGAUGGUUAAUCA [hsa-mir-376a-2] | Y
* UGCAUUUCUUACCUAGAGUUUUUAGUGCA [DMSMaPseq_invitro_SARS-CoV-2_Motif_163] | N
* GGAGCUCAGCACCUGCCUGCCACCCACGCAGACCAGCCCCUGCUCUGUUCCCACAG [hsa-mir-4648] | Y
* GAAGGGAAGCUGGGAACCUGACUGCCUC [hsa-mir-6867] | Y
* CUGGGGACUGUGUGGACUGGUAUCACCCAG [hsa-mir-2278] | Y
* GGCGUUGUCCUGCUGAAAUUGUUGACACUGUGAGUGCUUUGGUUUAUGAUAAUAAGCUUAAAGCACAUAAAGACAAAUCAGCUCAAUGCU | Y
* GGUGUUGCAGGAGCCUUAAAUAAGGCUACUAACAAUGCC [SHAPE_invivo_SARS-CoV-2_Motif_68] | N

###

As shown below, each of these sequences has a reported pull-down binding Z-score value.
Tested on: TO-N3 (biotin conjugate)
Assay: pull-down binding Z-score (relative to library population); higher = stronger binding
Settings: RNA library: Library-2
Endpoint: pull-down binding Z-score

• GACUUCCAUGACAUGAAAUAGGAAGUC [hsa-mir-616] = -1.12
• CCAGUGCUGGGCUCAGACCCUGG [hsa-mir-150] = 0.0645
• UUAAGGUGUUUACAACAGUAGACAACAUUAA [DMSMaPseq_invitro_SARS-CoV-2_Motif_93] = -1.08
• UGCCAUUACUCUCAGUGGCA [hsa-mir-548y] = -1.16
• AAACCUAAUGAAUUAUCUAGAGUAUUAGGUUU [SHAPE_invitro_SARS-CoV-2_Motif_132] = -0.985
• UGCUGUUGCUGUGAAAGCUGA [hsa-mir-6823] = 0.559
• GGCAUCUAGGCUGUGCACAGUGACGCC [hsa-mir-4749] = -0.376
• GGAGGCCCCGCUCUGCUGCCGACCCUGUGGAGCGGAGGGUGAAGCCUCC [hsa-mir-3180-4] = 0.553
• GGAGAGUGUUCAGACAUUCUUU [SHAPE_invitro_SARS-CoV-2_Motif_44] = -0.508
• CCACAUUUUCACCGAGGCCACGCGGAGUACGAUCGAGUGUACAGUGAACAAUGCUAGG = 0.772
• ACCUUUAGUACCUUUCUGGAUAACAAUUGCUUAUAUCAUUUGUAUUUCCACAAAGCAUUUCUAUUGGU = 0.513
• UUGUUGUUAUUACU [hsa-mir-378d-1] = -0.378
• UGAAUUGAAAUGCGUUACAUUCA [hsa-mir-95] = -0.0852
• CUGAACCCGUGGGUGAGGAGUGCAG [hsa-mir-4690] = 0.515
• CUGGGUUCGGCUGCUACCCCAAA [hsa-mir-6768] = 0.563
• GAUAACAACUUC [SHAPE_invitro_SARS-CoV-2_Motif_16] = 0.252
• UGACUACUUCGAAAAUGGGAAGUAGACA [hsa-mir-7849] = 0.00324
• GUCUCGGUCCUUUGGAACGUGGC [hsa-mir-4470] = -0.607
• GCGCUGCCAGAAACUGGCCCAGCGC [bulge-CC] = -0.282
• GUUAAAAUGUUUGAUGCUUACGUUAAUACGUUUUCAUCAACUUUUAAC = -1.54
• UAUUGAAAUCAAUA = -0.987
• UUUUGCAGUUUUUUUAAGUAAUUGCAAAA [hsa-mir-548f-3] = -0.812
• CAACUUACAAAUUAAAUGUUG = -0.698
• GAUUGCUAAUAGUACCAAUC [hsa-mir-34c] = 0.79
• AACGGGGCGGGCCUUGGGCGGGGUAA [G4_2A2_VEGF-Pu22-mt] = 7.05
• GUCCUAUUACGGAU = -1.37
• CUGGGAGGUGUGAUAUCGUGGUUCCUGG [hsa-mir-3689c] = 1.13
• GGCAGAAAUGUC [hsa-mir-8053] = -1.13
• GAUGUAGAAUUGUUUGAAAAUAAAACAACAUU = -0.878
• CCACAUAGGAGGGACAGCGGCCUUUCCAACAGG [hsa-mir-9500] = 0.58
• GUACCAAAGGUGC [IAV_invivo_PB1_2_Motif_35+IAV_invivo_PB1_2_Motif_35] = -0.215
• CACUUUCUGCUCUCUGGUGAAAGUG [hsa-mir-371a] = -0.0106
• GGCCAUCUGGCC [hsa-mir-4252] = -0.667
• AUAAUACGGAUUACGUUGUUA [hsa-mir-137] = 0.148
• UGAGGAGCUUAGCAAGUAGCUAAGGCCAGA [hsa-mir-4517] = 0.339
• AGGCAACAUGGCCGAGAGGCCGGGGCCU [hsa-mir-564] = -0.12
• UCAGCUGUGGAAAGUAAGAAAGCUGG [hsa-mir-30c-2] = 1.28
• CUGAGGACUGAGGCUCACCUUG [hsa-mir-6772] = 0.412
• CUAACAUGCUUAG [SHAPE_invitro_SARS-CoV-2_Motif_280] = 0.578
• UCUAUACAGAACUGGA [SHAPE_invivo_SARS-CoV-2_Motif_242] = 0.79
• GCCAGUUGGAGGC [IAV_invivo_PB1_2_Motif_15+IAV_invivo_PB1_2_Motif_15] = -0.233
• GCUUAUGGGGAUAUUGUGGUUGAUCUGUUCUAUCCAGAUGAC [hsa-mir-1261] = 0.676
• CUGUUCCACCAUUGAAGAGCUCAG [IAV_invivo_PB1_2_Motif_38+IAV_invivo_PB1_2_Motif_38] = 0.134
• GCCACGUAUAAACCAAAUACCUGGUGUAUACGUUGU = 0.17
